All values here come from patent US11339169B2.

molecular target: hP2X2/3 (Homo sapiens, UniProt P56373+Q9UBL9); assay: FLIPR intracellular calcium assay, hP2X2/3; conditions: human P2X2/3-TRex293 cells, agonist at EC75
Sequence (P56373 whole entry): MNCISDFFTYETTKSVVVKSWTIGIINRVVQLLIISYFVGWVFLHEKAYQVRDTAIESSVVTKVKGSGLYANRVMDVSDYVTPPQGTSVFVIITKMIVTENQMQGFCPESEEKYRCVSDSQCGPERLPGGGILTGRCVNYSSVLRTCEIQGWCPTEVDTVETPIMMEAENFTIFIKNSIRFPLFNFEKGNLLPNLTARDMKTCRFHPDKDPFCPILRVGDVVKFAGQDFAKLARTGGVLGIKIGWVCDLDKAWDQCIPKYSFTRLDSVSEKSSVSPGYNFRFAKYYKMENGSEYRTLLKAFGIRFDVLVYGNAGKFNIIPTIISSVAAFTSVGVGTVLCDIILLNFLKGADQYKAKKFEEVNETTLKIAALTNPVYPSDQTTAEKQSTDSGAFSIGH
Sequence (Q9UBL9 whole entry): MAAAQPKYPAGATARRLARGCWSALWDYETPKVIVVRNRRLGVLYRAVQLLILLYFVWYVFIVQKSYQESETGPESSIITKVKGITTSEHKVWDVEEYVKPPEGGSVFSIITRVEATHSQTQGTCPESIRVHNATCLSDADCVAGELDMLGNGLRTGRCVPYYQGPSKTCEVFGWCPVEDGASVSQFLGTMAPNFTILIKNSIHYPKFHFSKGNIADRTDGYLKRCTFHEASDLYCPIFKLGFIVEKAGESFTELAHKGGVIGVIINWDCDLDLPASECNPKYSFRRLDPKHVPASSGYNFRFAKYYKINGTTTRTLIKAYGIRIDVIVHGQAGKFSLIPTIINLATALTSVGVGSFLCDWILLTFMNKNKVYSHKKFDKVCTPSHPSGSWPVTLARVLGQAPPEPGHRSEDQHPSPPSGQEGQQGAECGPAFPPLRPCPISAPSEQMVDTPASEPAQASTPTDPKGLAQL
pIC50: −log10 of the molar value.
// reported pIC50 per item

CCC(C)n1nc2c(N[C@H](C)c3cnc4ccccc4c3)nc(N3CCN(C(C)=O)CC3)nc2c1C#N (stereo partly shown) [Example 106] = 5.00 to 6.00

Name the recorded pIC50 for CCC(CC)n1ncc2nc(N3CCN(C(N)=O)CC3)nc(N[C@H](C)c3cnc4ccccc4c3)c21 [Example 51] .
7.00 to 9.00

Name the recorded pIC50 for CC(=O)N1CCN(c2nc(NC(C)c3cnc4ccccc4c3)c3nn(C(C)C)c(C)c3n2)CC1 (stereo not shown) [Example 96] .
< 5.00

Name the recorded pIC50 for CCC(C)n1nc(C2CC2)c2nc(N3CCN(C(C)=O)CC3)nc(N[C@H](C)c3cnc4ccccc4c3)c21 (stereo partly shown) [Example 93] .
5.00 to 6.00

* * *

// reported IC50 per item
biological target: hP2X3 (Homo sapiens); assay: FLIPR intracellular calcium assay, hP2X3; conditions: human P2X3-HEK cells, agonist at EC75
Sequence (P56373 whole entry): as the sequence (P56373 whole entry) above

Sample answers from the record:
CC(C)n1ncc2nc(N3CCN(C(N)=O)CC3)nc(N[C@@H](c3cnc4ccccc4c3)C3CC3)c21 = 1 to 100 nM
CCC(C)n1ncc2nc(C3CCN(C(N)=O)CC3)nc(N[C@@H](c3cnc4ccccc4c3)C3CC3)c21 (stereo partly shown) = 1 to 100 nM
CC(=O)N1CCN(c2nc(N[C@H](C)c3cnc4ccccc4c3)c3c(cnn3CC3CCOCC3)n2)CC1 = 100 to 1000 nM
CCC(C)n1ncc2nc(N3CCN(C(C)=O)CC3)nc(N[C@@H](C)c3cnc4ccccc4c3)c21 (stereo partly shown) = 100 to 1000 nM
CC[C@H](C)n1ncc2nc(N3CCN(C(C)=O)CC3)nc(N[C@H](C)c3cnc4ccccc4c3)c21 = 1 to 100 nM

Name the recorded IC50 for CCC(C)n1ncc2nc(-c3cnn(CCF)c3)nc(N[C@@H](c3cnc4ccccc4c3)C3CC3)c21 (stereo partly shown) .
1 to 100 nM

Name the recorded IC50 for `CC(=O)N1CCN(c2nc(N[C@H](C)c3cnc4ccccc4c3)c3c(cnn3CC(C)C)n2)CC1` .
1 to 100 nM

* * *

target: UniProtKB P56373; assay: FLIPR intracellular calcium assay, hP2X3; conditions: human P2X3-HEK cells, agonist at EC75
// reported IC50 per item

Sample answers from the record:
CCC(C)n1nc(C2CC2)c2nc(N3CCN(C(C)=O)CC3)nc(N[C@H](C)c3cnc4ccccc4c3)c21 (stereo partly drawn) = 1 to 100 nM
CCC(C)n1cc2nc(N3CCN(C(C)=O)CC3)nc(NC(C)c3cnc4ccccc4c3)c2n1 (stereo not drawn) = 1 to 100 nM
CCC(CC)n1ncc2nc(N3CCN(C(C)=O)CC3)nc(NC(c3cnc4ccc(F)cc4c3)C3CC3)c21 (stereo not drawn) = 1 to 100 nM
CCC(CC)n1ncc2nc(N3CCN(C(C)=O)CC3)nc(NC(C)c3ccc4occc4c3)c21 (stereo not drawn) = 100 to 1000 nM
CC(=O)N1CCN(c2nc(N[C@H](C)c3cnc4ccccc4c3)c3nn(C(C)C)c(Br)c3n2)CC1 = 1 to 100 nM

Name the recorded IC50 for CCC(CC)n1ncc2nc(N3CCN(C(C)=O)CC3)nc(NC(c3ccc(OCC4CC4)nc3)C3CC3)c21 (stereo not drawn) .
100 to 1000 nM

Name the recorded IC50 for CCC(C)n1ncc2nc(-n3cc(C(N)=O)nn3)nc(N[C@@H](c3cnc4ccccc4c3)C3CC3)c21 (stereo partly drawn) .
1 to 100 nM

Name the recorded IC50 for CCC(C)n1ncc2nc(-c3nnc(C)o3)nc(N[C@@H](c3cnc4ccccc4c3)C3CC3)c21 (stereo partly drawn) .
1 to 100 nM

Name the recorded IC50 for `CC(=O)N1CCN(c2nc(NC(C)(C)Cc3ccc(Cl)cc3)c3nn(C(C)C)c(C)c3n2)CC1` .
100 to 1000 nM

Name the recorded IC50 for CCOc1ccc(C(C)Nc2nc(N3CCN(C(C)=O)CC3)nc3cnn(C(CC)CC)c23)cc1 (stereo not drawn) .
1 to 100 nM

Name the recorded IC50 for CCC(C)n1ncc2nc(N3CCN(C(N)=O)CC3)nc(N[C@@H](c3cnc4ccccc4c3)C3CC3)c21 (stereo partly drawn) .
1 to 100 nM

Name the recorded IC50 for COCC(C)n1ncc2nc(N3CCN(C(C)=O)CC3)nc(N[C@H](C)c3cnc4ccccc4c3)c21 (stereo partly drawn) .
1 to 100 nM

Name the recorded IC50 for CC[C@H](C)n1ncc2nc(N3CCN(C(C)=O)CC3)nc(NC(CO)c3cnc4ccccc4c3)c21 (stereo partly drawn) .
1 to 100 nM

Name the recorded IC50 for `CCC(CC)n1ncc2nc(-n3ccnn3)nc(N[C@@H](c3cnc4ccccc4c3)C3CC3)c21` .
1 to 100 nM

Name the recorded IC50 for `CC(=O)N1CCN(c2nc(N[C@H](C)c3cnc4ccccc4c3)c3nn(C(C)C)c(C4CC4)c3n2)CC1` .
1 to 100 nM
